Biological target: hERG K+ channel (Homo sapiens)
Construct: expressed in transfected cells; host or cells: CHO (Chinese hamster ovary) cells, CHOhERG
Sequence (Q12809 whole entry): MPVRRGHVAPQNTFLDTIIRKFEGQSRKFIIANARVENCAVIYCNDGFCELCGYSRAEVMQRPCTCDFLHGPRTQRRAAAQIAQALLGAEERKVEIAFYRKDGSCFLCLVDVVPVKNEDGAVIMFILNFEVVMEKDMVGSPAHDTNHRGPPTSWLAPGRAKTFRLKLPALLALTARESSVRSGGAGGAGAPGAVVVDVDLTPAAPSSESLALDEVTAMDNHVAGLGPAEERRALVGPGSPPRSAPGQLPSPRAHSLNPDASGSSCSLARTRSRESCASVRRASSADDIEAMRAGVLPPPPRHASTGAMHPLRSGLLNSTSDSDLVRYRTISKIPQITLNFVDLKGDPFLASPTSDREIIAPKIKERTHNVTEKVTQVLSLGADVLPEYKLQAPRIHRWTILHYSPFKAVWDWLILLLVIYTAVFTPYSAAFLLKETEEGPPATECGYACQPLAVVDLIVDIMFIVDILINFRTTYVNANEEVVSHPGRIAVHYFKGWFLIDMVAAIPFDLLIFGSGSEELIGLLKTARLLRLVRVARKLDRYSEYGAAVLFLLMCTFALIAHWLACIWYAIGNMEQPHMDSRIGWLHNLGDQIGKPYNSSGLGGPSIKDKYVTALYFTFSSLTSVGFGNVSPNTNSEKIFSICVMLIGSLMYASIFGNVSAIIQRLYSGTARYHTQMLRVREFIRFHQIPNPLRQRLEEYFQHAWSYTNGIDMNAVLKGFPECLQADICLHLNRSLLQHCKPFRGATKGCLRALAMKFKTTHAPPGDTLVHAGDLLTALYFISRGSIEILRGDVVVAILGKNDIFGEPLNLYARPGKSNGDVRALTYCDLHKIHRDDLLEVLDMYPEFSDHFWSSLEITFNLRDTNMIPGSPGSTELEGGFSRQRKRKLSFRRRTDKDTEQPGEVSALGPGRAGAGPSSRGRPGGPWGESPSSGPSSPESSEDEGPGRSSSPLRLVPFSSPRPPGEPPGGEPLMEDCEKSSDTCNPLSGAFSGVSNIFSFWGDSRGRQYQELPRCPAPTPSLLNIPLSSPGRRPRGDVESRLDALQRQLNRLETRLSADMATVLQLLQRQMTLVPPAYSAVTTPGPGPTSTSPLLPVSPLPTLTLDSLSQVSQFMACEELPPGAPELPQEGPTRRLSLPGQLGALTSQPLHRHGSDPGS
Experiment: hERG channel inhibition assay
Assay type: cell-based
Conditions: human, CHO cells stably expressing hERG, patch-clamp (voltage-clamp, whole-cell)
Protocol: hERG Channel Inhibition Assay The hERG K^+ channels were cloned in humans and stably expressed in a CHO (Chinese hamster ovary) cell line. CHOhERG cells were used for patch-clamp (voltage-clamp, whole-cell) experiments. […] After the cells were stabilized for a few minutes, the amplitude and kinetics of IKhERG were recorded at a stimulation frequency of 0.1 Hz (6 bpm). […]
Listed here are molecules together with their documented IC20.

Reference set (5 entries):
- CO[C@H]1CNC[C@@H]1N(C)c1ccc2c(c1)CN1[C@H](C)CN(c3ccc(C#N)c4ncccc34)C[C@H]21 [Example 64]: 8.5 µM
- C[C@@H]1CN(c2ccc(C#N)c3ncccc23)C[C@@H]2c3ccc(NCC4COCCN4)cc3CN12 (stereo partly drawn) [Example 57]: > 10 µM
- C[C@@H]1CN(c2ccc(C#N)c3ncccc23)C[C@@H]2c3ccc(N4CCOCC(N)C4)cc3CN12 (stereo partly drawn) [Example 54]: > 10 µM
- C[C@@H]1CN(c2ccc(C#N)c3ncccc23)C[C@@H]2c3ccc(NC[C@H]4CNCCO4)cc3CN12 [Example 59]: > 10 µM
- C[C@@H]1CN(c2ccc(C#N)c3ncccc23)C[C@@H]2c3ccc(N4C[C@@H](N)[C@H](O)C4)cc3CN12 (single isomer, unassigned) [Example 40B]: > 10 µM

The molecule listed as C[C@@H]1CN(c2ccc(C#N)c3ncccc23)C[C@@H]2c3ccc(N4CC(C)(N)C4)cc3CN12 [Example 39] shows IC20 equal to > 10 µM

The molecule listed as C[C@@H]1CN(c2ccc(C#N)c3ncccc23)C[C@@H]2c3ccc(N4CCN[C@H](CO)C4)cc3CN12 [Example 12] shows IC20 equal to > 10 µM

The molecule listed as C[C@@H]1CN(c2ccc(C#N)c3ncccc23)C[C@@H]2c3ccc(N4CC5(CN(C)C5)C4)cc3CN12 [Example 38] shows IC20 equal to > 10 µM
